- Target Of Assay: Recombinant human JAK2 catalytic domain (Homo sapiens)
- Construct: Recombinant human JAK2 catalytic domain (amino acids 808-1132; catalog number PV4210); GST; purchased Invitrogen PV4210
- Sequence (O60674 808-1132): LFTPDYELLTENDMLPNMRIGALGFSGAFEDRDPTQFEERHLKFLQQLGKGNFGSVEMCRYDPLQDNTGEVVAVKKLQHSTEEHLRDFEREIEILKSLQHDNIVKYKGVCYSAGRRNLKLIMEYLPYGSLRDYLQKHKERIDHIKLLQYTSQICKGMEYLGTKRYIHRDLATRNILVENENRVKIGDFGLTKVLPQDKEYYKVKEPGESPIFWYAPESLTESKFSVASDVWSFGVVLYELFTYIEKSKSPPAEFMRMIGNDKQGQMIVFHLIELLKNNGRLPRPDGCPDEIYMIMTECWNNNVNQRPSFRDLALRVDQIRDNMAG
- Experimental Protocol: JAK2 inhibition assay (polyGT substrate / Ulight-JAK1 peptide assay)
- Format: biochemical
- Test Parameters: Illustrative Compounds of the invention (Table VII)
Metric: IC50

Answered examples (2):
Cc1cc(C#N)ncc1Oc1cc(N(C)C)c2ncn(C)c2c1 > 500 nM
CCc1cc(C#N)ncc1Oc1cc(NC(=O)[C@H]2C[C@H]2F)c2ncn(C)c2c1 0.1 to 50 nM

Moving on to another molecule below.
// molecule Cc1cc(S(C)(=O)=O)cc(F)c1N(C)c1cc(NC(=O)[C@H]2C[C@H]2F)c2ncn(C)c2c1 , assay Recombinant human JAK2 catalytic domain (Homo sapiens), IC50 value: 0.1 to 50 nM
